- test summary: Plasma concentrations of the compound in mice of the allergic rhinitis model
- Type: in vivo
- test context: female, BALB/c, mouse, 10 mg/kg as the sodium salt, oral, at 8 hours, read-out: Plasma Cmin at 8 hours
observable: concentration at 8 h (nM)
Could you give me the number in nM? Just the number is fine.

Tell me concentration at 8 h reported for CN(C1CCc2c(c3ncccc3n2CC(=O)O)C1)S(=O)(=O)c1ccc(F)cc1 (racemic) 120

----------
- tgt: human DP2 receptor (Homo sapiens, UniProt Q9Y5Y4)
- Sequence (Q9Y5Y4 whole entry): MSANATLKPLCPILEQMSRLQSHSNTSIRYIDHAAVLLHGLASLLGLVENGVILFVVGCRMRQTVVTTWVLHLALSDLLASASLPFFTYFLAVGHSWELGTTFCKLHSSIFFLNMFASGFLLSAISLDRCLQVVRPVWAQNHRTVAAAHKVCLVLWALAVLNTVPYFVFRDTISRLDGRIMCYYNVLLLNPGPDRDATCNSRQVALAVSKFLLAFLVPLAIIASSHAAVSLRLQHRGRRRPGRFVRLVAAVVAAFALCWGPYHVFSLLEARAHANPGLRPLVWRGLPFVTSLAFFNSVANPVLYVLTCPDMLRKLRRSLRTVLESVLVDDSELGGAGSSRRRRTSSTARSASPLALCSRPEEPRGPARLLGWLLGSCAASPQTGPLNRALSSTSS
- test summary: DP2/CRTH2 radioligand binding assay using [3H]PGD2
- test context: membranes of HEK293 cells expressing recombinant human DP2, 1 nM [3H]PGD2; read-out: hDP2
pIC50: −log10 of the molar value.
observable: pIC50

Read off the recorded pIC50 for O=C(O)CCn1c2c(c3ccccc31)C[C@H](NS(=O)(=O)c1ccc(F)cc1)CC2 < 7.00

----------
- test summary: Plasma concentrations of the compound in mice of the allergic rhinitis model
- Assay type: in vivo
- test context: female, BALB/c, mouse, 10 mg/kg as the sodium salt, oral
observable: Cmax

Tell me Cmax reported for CN(C1CCc2c(c3ncccc3n2CC(=O)O)C1)S(=O)(=O)c1ccc(F)cc1 (racemic) [Compound 2] 770 nM
